test system: NCI-H23; test: NCI tumour cell line growth inhibition, 48 h
The source made the active and inactive calls. Rule as the data show it: active = GI50 up to about 1.1 µM and inactive = higher.
API: response.call in 1.0 = active, 0.0 = inactive

Below, 5 compounds whose answers are already recorded.
> print(dat)
                                   compound  category
1                Nc1nc(Cl)cc(NCC2(O)CCC2)n1       0.0
2  Cc1ccc(S(=O)(=O)C(C#N)c2nc3ccccc3nc2N2CCOCC2)cc1 (stereo unspecified)       0.0
3             CCCCC/C=C\C=C\CCCCCCCCC(=O)OC       0.0
4         CCOC(=O)Nc1[nH]cc(-c2ccccc2)c1C#N       0.0
5  COc1ccc2c(c1)CC[C@@H]1C2CC[C@]2(C)C(=O)N(CCN(C)C)C(=O)CC12 (stereo partly specified)       0.0

Called result for "Nc1ccn([C@@H]2C=C(CO)[C@@H](O)[C@H]2O)c(=O)n1"
1.0

Called result for C/C(=N\[N+](C)(C)C)C(c1ccccc1)C1(c2ccccc2)C(c2ccccc2)=C1c1ccccc1 (stereo unspecified)
0.0

Called result for "COC(=O)Nc1nc2ccccc2[nH]1"
0.0
